- Test system: 134 cancer cell lines
- Experiment: Cell viability assay (ATPlite, 72 hours), IC50 on cancer cell line panel
- Measurement setup: Homo sapiens, MCF7, read-out: IC50 in cell proliferation assay
pIC50: −log10 of the molar value.
Listed molecules paired with reported pIC50

# annotated cases, reported pIC50 shown
>>> measured_value("CCn1c(=O)c(-c2cc(NC(=O)Nc3ccccc3)c(F)cc2Br)cc2cnc(NC)cc21")
"< 4.50"
>>> measured_value("CCN1C(=O)N(c2c(F)c(OC)cc(OC)c2F)Cc2cnc3[nH]c(CN4CCOCC4)cc3c21")
"< 4.50"

Field: next molecule
Request: Consider the molecule shown here: C=CC(=O)N1CCC([C@@H]2CCNc3c(C(N)=O)c(-c4ccc(Oc5ccccc5)cc4)nn32)CC1 What is its recorded pIC50?
Response: < 4.50

====

- Test system: 134 cancer cell lines
- Experiment: Cell viability assay (ATPlite, 72 hours), IC50 on cancer cell line panel
- Measurement setup: Homo sapiens, HEC-1, read-out: IC50 in cell proliferation assay
# key: entry, value: IC50
API: value field is a number in nM; no unit string.

>>> measured_value("C[C@@H](Oc1cc(-c2cnn(C3CCNCC3)c2)cnc1N)c1c(Cl)ccc(F)c1Cl")
2220
>>> measured_value("CCc1cc2c(cc1N1CCC(N3CCOCC3)CC1)C(C)(C)c1[nH]c3cc(C#N)ccc3c1C2=O")
1320
>>> measured_value("C[C@H]1Oc2cc(cnc2N)-c2c(nn(C)c2C#N)CN(C)C(=O)c2ccc(F)cc21")
9240

Continue with the compound presented below.
Request: Request the reported IC50 associated with CCN1C(=O)N(c2c(F)c(OC)cc(OC)c2F)Cc2cnc3[nH]c(CN4CCOCC4)cc3c21
Response: 2370

====

- Test system: 134 cancer cell lines
- Experiment: Cell viability assay (ATPlite, 72 hours), IC50 on cancer cell line panel
- Measurement setup: Homo sapiens, Kasumi 1, read-out: IC50 in cell proliferation assay, Kasumi-1 cell line (KIT p.N822K)
log10(IC50) values for the molecules below.
Values reflect log10 of reported IC50 (nM).

Answered cases to consult:
>>> measured_value("CC(C)(C)c1nc(-c2cccc(NS(=O)(=O)c3c(F)cccc3F)c2F)c(-c2ccnc(N)n2)s1 [dabrafenib]")
3.96
>>> measured_value("CO[C@]1(C(=O)N[C@@H](C)c2ccc(-n3cc(F)cn3)nc2)CC[C@H](c2nc(C)cc(Nc3cc(C)[nH]n3)n2)CC1 [pralsetinib]")
2.26

Request: Name the reported log10(IC50) value associated with the molecule Cn1cnc2c(F)c(Nc3ccc(Br)cc3F)c(C(=O)NOCCO)cc21 [binimetinib]
Response: 2.28

Request: Also Cc1nc(NC(=O)N2CCC[C@H]2C(N)=O)sc1-c1ccnc(C(C)(C)C(F)(F)F)c1 [alpelisib] , if possible.
Response: 3.28

Request: Same lookup for Cn1cnc2c(F)c(Nc3ccc(Br)cc3Cl)c(C(=O)NOCCO)cc21 [selumetinib] , please.
Response: 2.54

Request: Likewise for CCN1CCN(c2ccc(Nc3cc(N(C)C(=O)Nc4c(Cl)c(OC)cc(OC)c4Cl)ncn3)cc2)CC1 [infigratinib] ?
Response: 3.53

Request: Another molecule to look at: COc1ccc(CN2C3CC2CN(c2ccc(-c4cc(OCC(C)(C)O)cn5ncc(C#N)c45)cn2)C3)cn1 [selpercatinib]
Response: 2.44
